Numbers sourced from patent US20080221060A1.

- target_entity: adenosine receptors (rat striatal membranes, [3H]-CGS21680) (Rattus norvegicus, UniProt P30543)
- Sequence (P30543 whole entry): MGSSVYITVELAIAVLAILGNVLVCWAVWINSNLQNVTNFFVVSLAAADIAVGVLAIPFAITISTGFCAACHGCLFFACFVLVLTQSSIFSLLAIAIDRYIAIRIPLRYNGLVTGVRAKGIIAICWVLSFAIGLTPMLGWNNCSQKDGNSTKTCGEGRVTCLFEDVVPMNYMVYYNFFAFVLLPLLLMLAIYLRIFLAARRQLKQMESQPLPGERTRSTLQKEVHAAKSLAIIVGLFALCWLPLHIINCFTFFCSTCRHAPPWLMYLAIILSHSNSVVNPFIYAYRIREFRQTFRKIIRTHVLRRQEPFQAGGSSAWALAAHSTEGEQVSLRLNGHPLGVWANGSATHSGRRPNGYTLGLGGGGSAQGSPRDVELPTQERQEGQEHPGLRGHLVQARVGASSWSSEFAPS
- test_method_notes: Ki from displacement of [3H]-CGS21680 in rat striatal membranes at pH 5.5 and pH 7.4
- Assay type: binding
- Set-up: from tissue; host or cells: rat striatum (membranes)
- run_parameters: pH 7.4; 2 nM [3H]-CGS21680, 90 minutes at 22° C.; read-out: (Ki) nM (pH 7.4)
readout_label: Ki (nM)
All answers are understood in nM, so give the number only.

NC(=O)[C@H]1O[C@@H](n2cnc3c(N)ncnc32)[C@H](O)[C@@H]1O [Compound 50] | 270
Nc1nc(NC2CCCC2)nc2c1ncn2[C@@H]1O[C@H](CO)[C@@H](O)[C@H]1O [Compound 29] | 420
CCCCCCNc1nc(N)c2ncn([C@@H]3O[C@H](CO)[C@@H](O)[C@H]3O)c2n1 [Compound 24] | 290
COc1nc(N)c2ncn([C@@H]3O[C@H](CO)[C@@H](O)[C@H]3O)c2n1 [Compound 1, 2-methoxyadenosine] | 1300

IN: I would be grateful if you could share the reported Ki for CN(C)c1nc(NC2CCCCC2)nc2c1ncn2[C@@H]1O[C@H](CO)[C@@H](O)[C@H]1O [Compound 57] .
OUT: 18000
